- experiment_description: in vitro
- particulars: both, human, plasma
Starred links: 1 amine or outer side, 2 acyl side, 3 side chain; linkers in the order of their positions; H or OH if unused. Non-standard residues stand in square brackets, D forms with d. Residues, ends and D or L forms follow the SMILES beside them. X6 = O=C([C@H](Cc1ccc(O)cc1)NC(=S)[C@H]1CCCN1[*:1])[*:2]; X7 = C[C@@H](O)[C@H](NC(=S)[C@H](CCCCN)N[*:1])C(=O)[*:2]; X2 = CC(C)C[C@H](NC(=S)[C@@H](CC(C)C)N[*:1])C(=O)[*:2]; X9 = O=C([C@@H]1CCCN1C(=S)[C@H](Cc1ccccc1)N[*:1])[*:2]; X5 = CC(C)C[C@H](NC(=S)[C@H](CC(C)C)N[*:1])C(=O)[*:2]; NMeL = CN[C@@H](CC(C)C)C(=O)O; dNMeL = CN[C@H](CC(C)C)C(=O)O
quantity_name: half-life (h)

>>> reported_measurement("C[C@@H](O)[C@@H]1NC(=O)[C@H](CCCCN)NC(=O)[C@@H](Cc2c[nH]c3ccccc23)NC(=O)[C@H](Cc2ccccc2)NC(=O)[C@@H]2CCCN2C(=S)[C@H](Cc2ccccc2)NC1=O [13d] (cyclo(F[dW]KT[X9]))")
42
>>> reported_measurement("CC(C)C[C@@H]1NC(=O)[C@H](Cc2ccc(O)cc2)NC(=O)[C@H]2CCCN2C(=O)[C@H](CC(C)C)NC(=O)[C@H](CC(C)C)NC(=O)[C@@H](CC(C)C)NC1=O [compound 10, cyclo(-D-Leu^1-Leu-Leu-D-Pro-Tyr-Leu^6-)] (cyclo(LL[dP]YL[dL]))")
8
>>> reported_measurement("CC(C)C[C@@H]1NC(=O)[C@H](Cc2ccc(O)cc2)NC(=O)[C@H]2CCCN2C(=O)[C@H](CC(C)C)N(C)C(=O)[C@H](CC(C)C)NC(=O)[C@@H](CC(C)C)NC1=O [10i] (cyclo(L[NMeL][dP]YL[dL]))")
19
>>> reported_measurement("CC(C)C[C@@H]1NC(=O)[C@@H](CC(C)C)NC(=O)[C@H](CC(C)C)N(C)C(=O)[C@H](Cc2ccc(O)cc2)NC(=O)[C@H]2CCCN2C(=O)[C@H](CC(C)C)NC1=O [10k] (cyclo(LL[dP]Y[NMeL][dL]))")
12
>>> reported_measurement("CC(C)C[C@@H]1NC(=O)[C@H](Cc2ccc(O)cc2)NC(=O)[C@H]2CCCN2C(=O)[C@H](CC(C)C)NC(=S)[C@H](CC(C)C)NC(=O)[C@@H](CC(C)C)NC1=O [10b] (cyclo(L[dL][X5][dP]Y))")
23
>>> reported_measurement("CC(C)C[C@@H]1NC(=O)[C@H](Cc2ccc(O)cc2)NC(=S)[C@H]2CCCN2C(=O)[C@H](CC(C)C)NC(=O)[C@H](CC(C)C)NC(=O)[C@@H](CC(C)C)NC1=O [10d] (cyclo(LL[X6]L[dL]))")
20
>>> reported_measurement("CC(C)C[C@@H]1NC(=O)[C@@H](CC(C)C)N(C)C(=O)[C@H](CC(C)C)NC(=O)[C@H](Cc2ccc(O)cc2)NC(=O)[C@H]2CCCN2C(=O)[C@H](CC(C)C)NC1=O [10g] (cyclo(LL[dP]YL[dNMeL]))")
15
>>> reported_measurement("C[C@@H](O)[C@@H]1NC(=O)[C@H](CCCCN)NC(=O)[C@@H](Cc2c[nH]c3ccccc23)NC(=S)[C@H](Cc2ccccc2)NC(=O)[C@@H]2CCCN2C(=O)[C@H](Cc2ccccc2)NC1=O [13f]")
16
>>> reported_measurement("C[C@@H](O)[C@@H]1NC(=S)[C@H](CCCCN)NC(=O)[C@@H](Cc2c[nH]c3ccccc23)NC(=O)[C@H](Cc2ccccc2)NC(=O)[C@@H]2CCCN2C(=O)[C@H](Cc2ccccc2)NC1=O [13b] (cyclo(FPF[dW][X7]))")
32
>>> reported_measurement("CC(C)C[C@@H]1NC(=O)[C@H](Cc2ccc(O)cc2)NC(=O)[C@H]2CCCN2C(=O)[C@H](CC(C)C)NC(=O)[C@H](CC(C)C)NC(=S)[C@@H](CC(C)C)NC1=O [10a] (cyclo(L[dP]YL[X2]))")
22

---

Documented Pe set1 across a set of molecules
- experiment_description: PAMPA passive permeability;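 further: passive permeability across an artificial membrane in 96-well pre-coated PAMPA plates, which lack transporters and efflux systems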
- Format: in vitro ADME
Starred links: 1 amine or outer side, 2 acyl side, 3 side chain; linkers in the order of their positions; H or OH if unused. Non-standard residues stand in square brackets, D forms with d. Residues, ends and D or L forms follow the SMILES beside them. X1 = CC(C)C[C@H](NC(=S)[C@H](Cc1ccc(O)cc1)N[*:1])C(=O)[*:2]; X6 = O=C([C@H](Cc1ccc(O)cc1)NC(=S)[C@H]1CCCN1[*:1])[*:2]; X2 = CC(C)C[C@H](NC(=S)[C@@H](CC(C)C)N[*:1])C(=O)[*:2]; X3 = CC(C)C[C@H](N[*:1])C(=S)N[C@H](CC(C)C)C(=O)[*:2]; X5 = CC(C)C[C@H](NC(=S)[C@H](CC(C)C)N[*:1])C(=O)[*:2]; X4 = CC(C)C[C@H](N[*:1])C(=S)N1CCC[C@@H]1C(=O)[*:2]
quantity_name: Pe set1

>>> reported_measurement("CC(C)C[C@@H]1NC(=O)[C@H](Cc2ccc(O)cc2)NC(=O)[C@H]2CCCN2C(=S)[C@H](CC(C)C)NC(=O)[C@H](CC(C)C)NC(=O)[C@@H](CC(C)C)NC1=O [10c] (cyclo(L[dL]L[X4]Y))")
"2.92 ×10⁻⁶ cm/s"
>>> reported_measurement("CC(C)C[C@@H]1NC(=O)[C@H](Cc2ccc(O)cc2)NC(=O)[C@H]2CCCN2C(=O)[C@H](CC(C)C)NC(=O)[C@H](CC(C)C)NC(=S)[C@@H](CC(C)C)NC1=O [10a] (cyclo(L[dP]YL[X2]))")
"8.08 ×10⁻⁶ cm/s"
>>> reported_measurement("CC(C)C[C@@H]1NC(=O)[C@@H](CC(C)C)NC(=O)[C@H](CC(C)C)NC(=S)[C@H](Cc2ccc(O)cc2)NC(=O)[C@H]2CCCN2C(=O)[C@H](CC(C)C)NC1=O [10e] (cyclo(LL[dP][X1][dL]))")
"7.43 ×10⁻⁶ cm/s"
>>> reported_measurement("CC(C)C[C@@H]1NC(=O)[C@H](Cc2ccc(O)cc2)NC(=O)[C@H]2CCCN2C(=O)[C@H](CC(C)C)NC(=S)[C@H](CC(C)C)NC(=O)[C@@H](CC(C)C)NC1=O [10b] (cyclo(L[dL][X5][dP]Y))")
"4.84 ×10⁻⁶ cm/s"
>>> reported_measurement("CC(C)C[C@@H]1NC(=O)[C@@H](CC(C)C)NC(=S)[C@H](CC(C)C)NC(=O)[C@H](Cc2ccc(O)cc2)NC(=O)[C@H]2CCCN2C(=O)[C@H](CC(C)C)NC1=O [10f] (cyclo(LL[dP]Y[X3]))")
"7.27 ×10⁻⁶ cm/s"
>>> reported_measurement("CC(C)C[C@@H]1NC(=O)[C@H](Cc2ccc(O)cc2)NC(=S)[C@H]2CCCN2C(=O)[C@H](CC(C)C)NC(=O)[C@H](CC(C)C)NC(=O)[C@@H](CC(C)C)NC1=O [10d] (cyclo(LL[X6]L[dL]))")
"2.03 ×10⁻⁶ cm/s"

---

- experiment_description: HDX of amide protons by NMR in DMSO-d6:D2O (8:2)
- particulars: HDX by NMR, 20% D2O in DMSO-d6
Starred links: 1 amine or outer side, 2 acyl side, 3 side chain; linkers in the order of their positions; H or OH if unused. Non-standard residues stand in square brackets, D forms with d. Residues, ends and D or L forms follow the SMILES beside them. X1 = CC(C)C[C@H](NC(=S)[C@H](Cc1ccc(O)cc1)N[*:1])C(=O)[*:2]; X2 = CC(C)C[C@H](NC(=S)[C@@H](CC(C)C)N[*:1])C(=O)[*:2]; X3 = CC(C)C[C@H](N[*:1])C(=S)N[C@H](CC(C)C)C(=O)[*:2]
Documented Half-life of Leu2 amide proton (HDX) across a set of compounds
quantity_name: Half-life of Leu2 amide proton (HDX)

>>> reported_measurement("CC(C)C[C@@H]1NC(=O)[C@H](Cc2ccc(O)cc2)NC(=O)[C@H]2CCCN2C(=O)[C@H](CC(C)C)NC(=O)[C@H](CC(C)C)NC(=O)[C@@H](CC(C)C)NC1=O [compound 10, cyclo(-D-Leu^1-Leu-Leu-D-Pro-Tyr-Leu^6-)] (cyclo(LL[dP]YL[dL]))")
"1.52 h"
>>> reported_measurement("CC(C)C[C@@H]1NC(=O)[C@H](Cc2ccc(O)cc2)NC(=O)[C@H]2CCCN2C(=O)[C@H](CC(C)C)NC(=O)[C@H](CC(C)C)NC(=S)[C@@H](CC(C)C)NC1=O [10a] (cyclo(L[dP]YL[X2]))")
"1.83 h"
>>> reported_measurement("CC(C)C[C@@H]1NC(=O)[C@@H](CC(C)C)NC(=O)[C@H](CC(C)C)NC(=S)[C@H](Cc2ccc(O)cc2)NC(=O)[C@H]2CCCN2C(=O)[C@H](CC(C)C)NC1=O [10e] (cyclo(LL[dP][X1][dL]))")
"0.6 h"
>>> reported_measurement("CC(C)C[C@@H]1NC(=O)[C@@H](CC(C)C)NC(=S)[C@H](CC(C)C)NC(=O)[C@H](Cc2ccc(O)cc2)NC(=O)[C@H]2CCCN2C(=O)[C@H](CC(C)C)NC1=O [10f] (cyclo(LL[dP]Y[X3]))")
"11.7 h"
